PROTOCOL_DETAILS: Chemical stability of the compound assessed as drug decomposition at 1 mM in phosphate buffer at pH 7.4 after 24 hrs by HPLC analysis
Format: physicochemical
CONDITION_CONTEXT: read-out: Drug degradation
ASSAY_METRIC: degraded at 24 h, 1000 µM (%)
Reply numerically in %, unit not repeated.

Query: // query degraded at 24 h, 1000 µM value for entry CC(C)Cc1ccc(C(C)C(=O)OCCCOP(=O)(COCCn2cnc3c(N)ncnc32)OCCOC(=O)[C@@H](N)C(C)C)cc1 (some centres undefined)
Result: 7.8

Query: Lookup CC[C@H](C)[C@H](N)C(=O)OCCOP(=O)(COCCn1cnc2c(N)ncnc21)OCCCOC(=O)C(C)c1cccc(C(=O)c2ccccc2)c1 (some centres undefined)
Result: 12.5

Query: Lookup CC(C(=O)OCCCOP(=O)(COCCn1cnc2c(N)ncnc21)OCCOC(=O)[C@@H](N)Cc1ccccc1)c1ccc(-c2ccccc2)c(F)c1 (some centres undefined)
Result: 10.3

Query: Lookup CC[C@H](C)[C@H](N)C(=O)OCCOP(=O)(COCCn1cnc2c(N)ncnc21)OCCCOC(=O)C(C)c1ccc(CC(C)C)cc1 (some centres undefined)
Result: 9.1
